System: S. aureus ATCC 27660
EXPERIMENT SUMMARY: NCCLS broth microdilution MIC
Format: cell-based, Staphylococcus aureus
PARTICULARS: Col. A = S. aureus ATCC 27660 (MRSA)
ENDPOINT: Minimum Inhibitory Concentration (MIC)

# MOLECULE SMILES, TEST RESULT
records = [
    ("Cn1cc(NC(=O)c2cc(NC(=O)c3cc(NC(=O)c4ccc(F)cc4F)cn3C)cn2C)cc1C(=O)NCCN1CCCCCC1", "++ (++ = MIC ≦ 1)"),
    ("CC(C)N(CCNC(=O)CCNC(=O)c1cc(NC(=O)c2cc(NC(=O)CCNC(=O)c3cc(NC(=O)c4cc(NC(=O)c5cc(Br)c(Br)s5)cn4C)cn3C)cn2C)cn1C)C(C)C", "++ (++ = MIC ≦ 1)"),
    ("Cn1cc(NC(=O)c2cc3ccccc3cn2)cc1C(=O)Nc1cc(C(=O)Nc2cc(C(=O)NCCN3CCOCC3)n(CCN3CCOCC3)c2)n(C)c1", "++ (++ = MIC ≦ 1)"),
]

---

Tested on: S. aureus ATCC 27660
EXPERIMENT SUMMARY: NCCLS broth microdilution MIC
Assay type: cell-based, Staphylococcus aureus
PARTICULARS: Col. A = S. aureus ATCC 27660 (MRSA)
ENDPOINT: Minimum Inhibitory Concentration (MIC)

# MOLECULE SMILES, TEST RESULT
records = [
    ("Cn1cc(NC(=O)c2cc(NC(=O)CCNC(=O)c3cc(NC(=O)c4cc(NC(=O)c5cc(Br)c(Br)s5)cn4C)cn3C)cn2C)cc1C(=O)NCCC(=O)NCCN1CCCCC1", "++ (++ = MIC ≦ 1)"),
    ("Cc1cc(NC(=O)c2cc(NC(=O)c3cc(NC(=O)c4nsc(NCCN5CCCCC5)c4Cl)cn3C)cn2C)sn1", "++ (++ = MIC ≦ 1)"),
    ("CN(C)CC(C)(C)CNC(=O)CCNC(=O)c1cc(NC(=O)c2cc(NC(=O)CCNC(=O)c3cc(NC(=O)c4cc(NC(=O)c5cc(Br)c(Br)s5)cn4C)cn3C)cn2C)cn1C", "++ (++ = MIC ≦ 1)"),
]

---

TGT: target sequence […] (351 bp fragment, Plasmid A)
EXPERIMENT SUMMARY: Quantitative DNase I footprint titration
Assay type: binding
PARTICULARS: AAAAAGTACAAAAA, 351 bp A; 22° C., pH 7.0; read-out: Dissociation Constant Kd
pKd: −log10 of the molar value.
Parameter pKd: see the listing below.

# MOLECULE, pKd
data = [
    ("Cn1cc(NC(=O)c2cc(NC(=O)CCNC(=O)c3cc(NC(=O)c4cc(NC(=O)c5cc(Br)c(Br)s5)cn4C)cn3C)cn2C)cc1C(=O)NCCC(=O)NCCN1CCCCC1 [Compound 3]", 11.00),
    ("CC(C)N(CCNC(=O)CCNC(=O)c1cc(NC(=O)c2cc(NC(=O)CCNC(=O)c3cc(NC(=O)c4cc(NC(=O)c5cc(Br)c(Br)s5)cn4C)cn3C)cn2C)cn1C)C(C)C [Compound 2]", 9.70),
    ("CCN(CC)CCCNC(=O)CCNC(=O)c1cc(NC(=O)c2cc(NC(=O)CCNC(=O)c3cc(NC(=O)c4cc(NC(=O)c5cc(Br)c(Br)s5)cn4C)cn3C)cn2C)cn1C [Compound 4]", 11.00),
    ("CN(C)CC(C)(C)CNC(=O)CCNC(=O)c1cc(NC(=O)c2cc(NC(=O)CCNC(=O)c3cc(NC(=O)c4cc(NC(=O)c5cc(Br)c(Br)s5)cn4C)cn3C)cn2C)cn1C [Compound 5]", 11.00),
]
